System: BT-549 breast
Test: NCI-60 one-dose screen, 48 h
Conditions: 10 µM unless noted
About 83,000 compounds went through this panel and 20% of them were active in at least one assay; those are over-represented in the sample as a whole. The source made the active and inactive calls. The calls were made as follows: active = growth percent below 10; inactive = the rest.
A correct response names exactly one class from y for active, n for inactive

Sample answers from the record:
CCNc1nc(N2CC(=O)Nc3cc(OC)ccc32)c2ccccc2n1
y
C=C1C(=O)O[C@H]2[C@H]1CC/C(COC(=O)NCc1cc(OC)c(OC)c(OC)c1)=C\CC[C@@]1(C)O[C@@H]21
n
CN(C)C/C=C/C(=O)Nc1cc2c(Nc3cccc(Cl)c3F)ncnc2cc1OCCOC(F)F
n
CC(Br)C(OC(=O)c1ccccc1Cl)c1cc2c(cc1Br)OCO2 (centres undefined)
n
O=C(CNc1ccc(Cl)cc1)Nc1ccc(-c2nc3ccccc3s2)cc1
n

Q. Answer briefly: the call reported for COc1ccc(S(=O)(=O)NCCNc2nccc(-c3c(-c4ccccc4)nc4sccn34)n2)cc1 in this assay.
A. n

Q. Answer briefly: the call reported for Nc1c(C(=O)Nc2cccc([N+](=O)[O-])c2)sc2nc3c(cc12)C(O)CCC3 (centres undefined) in this assay.
A. n

Q. Answer briefly: the call reported for O=C(Nc1ccccc1)OCC1OCOC(COC(=O)Nc2ccccc2)C1OC(=O)Nc1ccccc1 (centres undefined) in this assay.
A. n

Q. Answer briefly: the call reported for Nc1ccccc1C#C/C=C\C#Cc1cccc(O)c1 in this assay.
A. n

The reported numbers originate from PubChem BioAssay (NCI).
